- PROCEDURE SUMMARY: Permeability across apical to basolateral side in MDCK cells assessed as drug recovery at 1 uM after 2 hrs by LC-MS/MS analysis
- Format: ADME, cell-based, Canis lupus familiaris
- CONDITION DESCRIPTION: dog
MEASURED ENDPOINT: Drug recovery (%)
# number only, unit % dropped from output

{"columns": ["COMPOUND", "Drug recovery / %"],
 "data": [
  ["Cc1nn(-c2ccccn2)c2c1C(=O)CC(C)(C)C2Br (centres undefined)", 52.4],
  ["Cc1ccc(NC(=O)c2ccc(CN3CCN(C)CC3)cc2)cc1Nc1nccc(-c2cccnc2)n1 [IMATINIB]", 56.6],
  ["COCCc1ccc(OCC(O)CNC(C)C)cc1 (centres undefined) [METOPROLOL]", 90.7]
]}

Continue with the next compound.
# input Using known records, supply Drug recovery for C[C@H]1O[C@@H](O[C@H]2[C@@H](O)C[C@H](O[C@H]3[C@@H](O)C[C@H](O[C@H]4CC[C@@]5(C)[C@H](CC[C@@H]6[C@@H]5C[C@@H](O)[C@]5(C)[C@@H](C7=CC(=O)OC7)CC[C@]65O)C4)O[C@@H]3C)O[C@@H]2C)C[C@H](O)[C@@H]1O [DIGOXIN]
# output 77.1
